// data source = ChEMBL document CHEMBL1681670

Below, each entry is listed alongside its reported log10 IC50.
# Test system: HCT-8
# measurementNotes: Cytotoxicity against human HCT8 cells after 3 days by MTT assay
# Type: functional, cell-based
# runParameters: HCT-8, 72 h
Please interpret these as log10 of IC50 where IC50 is in µM.

compound: COC1=C(C)C(=O)C2=C(C1=O)[C@@H]1[C@@H]3CC4=C(C(=O)C(OC)=C(C)C4=O)[C@H](COC(=O)c4cccnc4)N3C(=O)[C@H](C2)N1C
observedValue: 1.29
//
compound: COC1=C(C)C(=O)C2=C(C1=O)[C@@H]1[C@@H]3CC4=C(C(=O)C(OC)=C(C)C4=O)[C@H](COC(=O)/C=C/c4ccc(OC)c(OC)c4OC)N3C(=O)[C@H](C2)N1C
observedValue: 1.09
//
compound: COC1=C(C)C(=O)C2=C(C1=O)[C@@H]1[C@@H]3CC4=C(C(=O)C(OC)=C(C)C4=O)[C@H](COC(=O)c4ccccc4)N3C(=O)[C@H](C2)N1C
observedValue: 0.78
//
compound: C/C=C(/C)C(=O)OC[C@H]1C2=C(C[C@H]3[C@H]4C5=C(C[C@@H](C(=O)N13)N4C)C(=O)C(C)=C(OC)C5=O)C(=O)C(C)=C(OC)C2=O [(-)-RENIERAMYCIN G]
observedValue: 0.94
//
compound: COC1=C(C)C(=O)C2=C(C1=O)[C@@H]1[C@@H]3CC4=C(C(=O)C(OC)=C(C)C4=O)[C@H](COC(=O)c4cc5ccccc5[nH]4)N3C(=O)[C@H](C2)N1C
observedValue: 0.89

Name the recorded log10 IC50 for COC1=C(C)C(=O)C2=C(C1=O)[C@@H]1[C@@H]3CC4=C(C(=O)C(OC)=C(C)C4=O)[C@H](COC(=O)/C=C/c4cccc5ccccc45)N3C(=O)[C@H](C2)N1C .
0.97

Entry COC1=C(C)C(=O)C2=C(C1=O)[C@@H]1[C@@H]3CC4=C(C(=O)C(OC)=C(C)C4=O)[C@H](COC(=O)c4cccc5ccccc45)N3C(=O)[C@H](C2)N1C : reported log10 IC50 = ?
1.45

Recorded log10 IC50 for C/C=C/C(=O)OC[C@H]1C2=C(C[C@H]3[C@H]4C5=C(C[C@@H](C(=O)N13)N4C)C(=O)C(C)=C(OC)C5=O)C(=O)C(C)=C(OC)C2=O , please?
1.39

Item C/C=C/C=C/C(=O)OC[C@H]1C2=C(C[C@H]3[C@H]4C5=C(C[C@@H](C(=O)N13)N4C)C(=O)C(C)=C(OC)C5=O)C(=O)C(C)=C(OC)C2=O has what recorded log10 IC50?
0.54

Fill blank: measured log10 IC50 of the compound COC1=C(C)C(=O)C2=C(C1=O)[C@@H]1[C@@H]3CC4=C(C(=O)C(OC)=C(C)C4=O)[C@H](COC(=O)/C=C/c4ccc(OC)cc4)N3C(=O)[C@H](C2)N1C is ____.
0.95

For COC1=C(C)C(=O)C2=C(C1=O)[C@@H]1[C@@H]3CC4=C(C(=O)C(OC)=C(C)C4=O)[C@H](COC(=O)/C=C/c4ccc(F)cc4)N3C(=O)[C@H](C2)N1C , what is its reported log10 IC50?
0.96

Item COC1=C(C)C(=O)C2=C(C1=O)[C@@H]1[C@@H]3CC4=C(C(=O)C(OC)=C(C)C4=O)[C@H](COC(C)=O)N3C(=O)[C@H](C2)N1C has what recorded log10 IC50?
0.75

Param item = COC1=C(C)C(=O)C2=C(C1=O)[C@@H]1[C@@H]3CC4=C(C(=O)C(OC)=C(C)C4=O)[C@H](COC(=O)c4cccs4)N3C(=O)[C@H](C2)N1C ; retrieve measured log10 IC50.
0.17

Which log10 IC50 is listed for COC1=C(C)C(=O)C2=C(C1=O)[C@@H]1[C@@H]3CC4=C(C(=O)C(OC)=C(C)C4=O)[C@H](COC(=O)/C=C/c4ccccc4)N3C(=O)[C@H](C2)N1C ?
0.70

For the compound COC1=C(C)C(=O)C2=C(C1=O)[C@@H]1[C@@H]3CC4=C(C(=O)C(OC)=C(C)C4=O)[C@H](COC(=O)c4cc(OC)c(OC)c(OC)c4)N3C(=O)[C@H](C2)N1C , what log10 IC50 is on record?
0.44

Looking for the measured log10 IC50 of COC1=C(C)C(=O)C2=C(C1=O)[C@@H]1[C@@H]3CC4=C(C(=O)C(OC)=C(C)C4=O)[C@H](COC(=O)/C=C/c4cccnc4)N3C(=O)[C@H](C2)N1C , can you help?
0.31
